The values you see were collected from the supplement of paper PMC10567573.

protein stability index: recorded values
B1: TSN (parent)
chain: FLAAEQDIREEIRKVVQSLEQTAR

variants of: B1; assay: protein stability index of a GFP-peptide fusion (GPS, HEK-293T) (PSI 1-6); higher = more stable; conditions: c terminus: a fixed tail appended;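 further: lentivirally expressed fusions sorted by FACS into six bins by GFP to DsRed ratio, PSI derived from sequencing read proportions per bin multiplied by bin number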
Quick one: just the number, no unit, thanks!

Some variants with recorded protein stability index:
Q6D    1.85
V15A    3.48
R24T    2.08
L19G    3.51
R24Q    1.74

Lab note: measured protein stability index of E10C was 2.47

Lab note: measured protein stability index of E11S was 2.47

Lab note: measured protein stability index of I12L was 2.63

Lab note: measured protein stability index of I12A was 2.32

Lab note: measured protein stability index of V16I was 1.86

Lab note: measured protein stability index of S18H was 1.71

Lab note: measured protein stability index of K14E was 2.36

Lab note: measured protein stability index of Q21G was 2.08

Lab note: measured protein stability index of V15C was 2.56

Lab note: measured protein stability index of I12E was 4.52

Lab note: measured protein stability index of I12H was 4.29

Lab note: measured protein stability index of S18Y was 1.57
